- SUBJECT OF TEST: human mGluR5 (Homo sapiens, UniProt P41594)
- Sequence (P41594 21-1180 isoform P41594-2 limits assumed): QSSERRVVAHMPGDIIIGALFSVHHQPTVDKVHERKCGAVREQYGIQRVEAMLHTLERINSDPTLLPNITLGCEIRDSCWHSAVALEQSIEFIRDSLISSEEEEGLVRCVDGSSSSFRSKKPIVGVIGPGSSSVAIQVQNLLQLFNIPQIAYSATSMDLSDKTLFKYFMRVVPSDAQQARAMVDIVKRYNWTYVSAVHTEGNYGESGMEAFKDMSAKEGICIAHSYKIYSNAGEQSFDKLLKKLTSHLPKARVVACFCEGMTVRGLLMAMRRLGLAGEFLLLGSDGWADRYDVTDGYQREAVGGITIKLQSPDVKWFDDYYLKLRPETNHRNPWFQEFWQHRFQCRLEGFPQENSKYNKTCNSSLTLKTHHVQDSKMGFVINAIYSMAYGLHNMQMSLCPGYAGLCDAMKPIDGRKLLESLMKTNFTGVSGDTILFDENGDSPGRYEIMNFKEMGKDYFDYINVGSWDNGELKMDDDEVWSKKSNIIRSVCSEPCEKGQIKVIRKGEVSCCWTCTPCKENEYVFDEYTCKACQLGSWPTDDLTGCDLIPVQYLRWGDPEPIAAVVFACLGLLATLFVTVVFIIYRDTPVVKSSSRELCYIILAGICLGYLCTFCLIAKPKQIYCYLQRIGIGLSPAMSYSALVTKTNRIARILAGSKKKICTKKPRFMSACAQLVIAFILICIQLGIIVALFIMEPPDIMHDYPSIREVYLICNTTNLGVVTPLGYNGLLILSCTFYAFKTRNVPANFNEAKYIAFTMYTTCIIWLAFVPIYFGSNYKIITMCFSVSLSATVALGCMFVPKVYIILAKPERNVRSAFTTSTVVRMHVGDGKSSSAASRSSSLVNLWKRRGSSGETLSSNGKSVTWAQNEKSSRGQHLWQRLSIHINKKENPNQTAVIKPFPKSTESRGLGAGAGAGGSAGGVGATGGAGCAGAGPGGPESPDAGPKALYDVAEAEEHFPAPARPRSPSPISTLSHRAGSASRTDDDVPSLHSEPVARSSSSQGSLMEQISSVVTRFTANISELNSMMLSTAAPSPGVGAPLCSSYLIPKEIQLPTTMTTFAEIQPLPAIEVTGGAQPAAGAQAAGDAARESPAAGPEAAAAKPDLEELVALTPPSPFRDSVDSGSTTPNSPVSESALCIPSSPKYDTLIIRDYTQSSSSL
- METHOD NOTES: Cell-based functional Ca2+ mobilization assay (FDSS), potentiation of glutamate EC20 response
- APPLIED CONDITIONS: H10H cell-line (HEK, recombinant human mGluR5); glutamate EC20; maximum average response at a single concentration, percent of maximal glutamate response
- Protocol: Human mGluR5a cDNA in pCMV6-XL6 mammalian expression plasmid was purchased from OriGene Technologies, Inc. (catalogue number SC326357) and subcloned into pcDNA3.1(−). […] After establishment of a fluorescence baseline for about 3 seconds, the compounds of the present invention were added to the cells, and the response in cells was measured. […] Calcium fluorescence measures were recorded as fold over basal fluorescence; raw data was then normalized to the maximal response to glutamate. […]
READOUT LABEL: Emax (%)

1. Cc1cncc(CN2CCn3nc(COc4ccccc4)cc3C2=O)n1 = 66
2. COc1cnc(CN2CCn3nc(COc4ccccc4)cc3C2=O)nc1 = 59.5
3. O=C1c2cc(COc3ccccc3)nn2CCN1Cc1ncc(F)cn1 = 66
4. Cc1cccc(OCc2cc3n(n2)C[C@@H](C)N(Cc2ccccc2)C3=O)c1 = 64.5
5. COc1cccc(CN2CCn3nc(COc4ccccc4)cc3C2=O)n1 = 68
6. O=C1c2cc(COc3ccccc3)nn2CCCN1Cc1ccccc1 = 64
7. C[C@@H]1Cn2nc(COc3cccc(F)c3)cc2C(=O)N1Cc1ccccc1 = 73
8. COc1cc(CN2CCn3nc(COc4ccccc4)cc3C2=O)ccc1F = 64
9. Cc1cccc(CN2C(=O)c3cc(COc4ccccc4)nn3C[C@H]2C)n1 = 71.5

----------
- SUBJECT OF TEST: UniProt:P41594
- METHOD NOTES: Cell-based functional Ca2+ mobilization assay (FDSS), potentiation of glutamate EC20 response
- APPLIED CONDITIONS: H10H cell-line (HEK, recombinant human mGluR5); positive allosteric modulation in presence of glutamate EC20; concentration in mol/L
pEC50: −log10 of the molar value.
READOUT LABEL: pEC50

1. Cc1cc(CN2CCn3nc(COc4ccccc4)cc3C2=O)no1 = 6.02
2. O=C1c2cc(COc3ccccc3)nn2CCN1Cc1ncccc1F = 6.38
3. C[C@@H]1Cn2nc(COc3cccc(F)c3)cc2C(=O)N1Cc1ccccc1 = 7.03
4. CC1CN(Cc2ccccc2)C(=O)c2cc(COc3ccccc3)nn21 (single isomer, unassigned) = 7.22
5. O=C1c2cc(COc3ccccc3)nn2CCN1Cc1ccc(Cl)cc1 = 6.81
6. COc1c(Cl)cccc1CN1CCn2nc(COc3ccccc3)cc2C1=O = 7.75

P = O=C1c2cc(COc3ccccc3)nn2CCN1Cc1cccc(Cl)c1
Q = Cc1cccc(CN2CCn3nc(COc4ccccc4)cc3C2=O)n1
R = Cc1cccc(OCc2cc3n(n2)C[C@@H](C)N(Cc2ccccc2)C3=O)c1
Order the 3 compounds from highest to lowest pEC50. List the labels, following the order given in the request.
P, R, Q

1 = O=C1c2cc(COc3ccccc3)nn2CCN1Cc1ccc(F)cc1F
2 = COc1nccnc1CN1CCn2nc(COc3cccc(F)c3)cc2C1=O
3 = COc1cccc(F)c1CN1CCn2nc(COc3ccccc3)cc2C1=O
Order the 3 compounds from highest to lowest pEC50. List the labels, following the order given in the request.
1, 3, 2

P = Cc1cccc(CN2CCn3nc(COc4ccc(F)cc4)cc3C2=O)n1
Q = CC1CN([C@H](C)c2ccccc2)C(=O)c2cc(COc3ccccc3)nn21 (single isomer, unassigned)
Please state the entry with greater pEC50 among P and Q . Reply with the label of the item you choose.
Q

a = O=C1c2cc(COc3ccccc3)nn2CCN1Cc1ccccc1F
b = COc1ccc(CN2CCn3nc(COc4ccccn4)cc3C2=O)cc1
c = CN(C)c1cccc(CN2CCn3nc(COc4ccccc4)cc3C2=O)n1
d = Cc1ccnc(OCc2cc3n(n2)CCN(Cc2ccccc2)C3=O)c1
e = COc1cc(CN2CCn3nc(COc4ccccc4)cc3C2=O)ccc1F
Order the 5 compounds from highest to lowest pEC50. List the labels, following the order given in the request.
a, c, e, d, b
(a: 7.36, c: 7.02, e: 6.69, d: 6.12, b: 5.89)

A = COc1ccc(F)cc1CN1CCn2nc(COc3ccccc3)cc2C1=O
B = O=C1c2cc(COc3ccccc3)nn2CCN1Cc1ccccn1
Of A and B , which shows the smaller pEC50 value? Reply with the label of the item you choose.
B

P = O=C1c2cc(COc3ccccc3)nn2CCN1Cc1cc(F)ccc1F
Q = CC1CN(Cc2ccccc2)C(=O)c2cc(COc3cccc(F)c3)nn21 (single isomer, unassigned)
Of P and Q , which shows the smaller pEC50 value? Reply with the label of the item you choose.
P

a = O=C1c2cc(COc3ccccc3)nn2CCN1Cc1nccc2ccccc12
b = O=C1c2cc(COc3ccccc3)nn2CCN1Cc1nc2ccccc2s1
c = CC1CN(Cc2ccccc2)C(=O)c2cc(COc3cccc(C#N)c3)nn21 (single isomer, unassigned)
Order the 3 compounds from highest to lowest pEC50. List the labels, following the order given in the request.
b, a, c
(b: 7.17, a: 6.91, c: 6.28)

I = C[C@@H]1Cn2nc(COc3ccccn3)cc2C(=O)N1Cc1ccccc1
II = Cc1nc(CN2CCn3nc(COc4ccccc4)cc3C2=O)cs1
Of I and II , which shows the smaller pEC50 value? Reply with the label of the item you choose.
I
